measured-on: STING (Homo sapiens, UniProt Q86WV6, G230A/H232R/R293Q/R71H)
Sequence (Q86WV6 whole entry R71H/G230A/H232R/R293Q): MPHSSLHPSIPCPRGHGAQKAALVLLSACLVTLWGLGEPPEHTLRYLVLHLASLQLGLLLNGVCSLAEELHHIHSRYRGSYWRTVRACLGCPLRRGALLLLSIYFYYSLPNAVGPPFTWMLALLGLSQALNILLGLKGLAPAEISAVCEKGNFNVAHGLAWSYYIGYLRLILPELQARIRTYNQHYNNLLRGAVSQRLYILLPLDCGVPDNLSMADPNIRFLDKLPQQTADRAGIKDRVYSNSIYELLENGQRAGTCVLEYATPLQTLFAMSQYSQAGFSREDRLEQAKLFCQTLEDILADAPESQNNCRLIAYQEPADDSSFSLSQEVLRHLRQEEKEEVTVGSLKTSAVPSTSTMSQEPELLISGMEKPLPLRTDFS
experiment-summary: STING reporter assay: luciferase reporter activity in THP1-Dual KO-IFNAR2 cells stimulated with 2′3′cGAMP
condition-details: 15 μM 2′3′cGAMP, 24h, read-out: hSTING EC50
Listing of recorded EC50 by entry.

compound | EC50
O=C(Nc1c[nH]c2ccc(-c3cnn(-c4ccc(C(F)(F)F)cc4)c3)cc12)c1cncs1 | 200 to 1000 nM

Please look at the following compound next.
Prompt line: What does the record list as EC50 for Cn1ccnc1C(=O)Nc1c[nH]c2ccc(-c3cnn(-c4ccc(C(F)(F)F)cc4)c3)cc12 ?
Response line: 1000 to 5000 nM
